All values here come from patent US6743800B1.

# System under test: human vitronectin receptor αvβ3 (Homo sapiens, UniProt P05106+P06756)
# Construct: Human vitronectin receptor is obtained from the human placenta according to the method of Pytela et al
# Sequence (P06756 31-889 limits assumed): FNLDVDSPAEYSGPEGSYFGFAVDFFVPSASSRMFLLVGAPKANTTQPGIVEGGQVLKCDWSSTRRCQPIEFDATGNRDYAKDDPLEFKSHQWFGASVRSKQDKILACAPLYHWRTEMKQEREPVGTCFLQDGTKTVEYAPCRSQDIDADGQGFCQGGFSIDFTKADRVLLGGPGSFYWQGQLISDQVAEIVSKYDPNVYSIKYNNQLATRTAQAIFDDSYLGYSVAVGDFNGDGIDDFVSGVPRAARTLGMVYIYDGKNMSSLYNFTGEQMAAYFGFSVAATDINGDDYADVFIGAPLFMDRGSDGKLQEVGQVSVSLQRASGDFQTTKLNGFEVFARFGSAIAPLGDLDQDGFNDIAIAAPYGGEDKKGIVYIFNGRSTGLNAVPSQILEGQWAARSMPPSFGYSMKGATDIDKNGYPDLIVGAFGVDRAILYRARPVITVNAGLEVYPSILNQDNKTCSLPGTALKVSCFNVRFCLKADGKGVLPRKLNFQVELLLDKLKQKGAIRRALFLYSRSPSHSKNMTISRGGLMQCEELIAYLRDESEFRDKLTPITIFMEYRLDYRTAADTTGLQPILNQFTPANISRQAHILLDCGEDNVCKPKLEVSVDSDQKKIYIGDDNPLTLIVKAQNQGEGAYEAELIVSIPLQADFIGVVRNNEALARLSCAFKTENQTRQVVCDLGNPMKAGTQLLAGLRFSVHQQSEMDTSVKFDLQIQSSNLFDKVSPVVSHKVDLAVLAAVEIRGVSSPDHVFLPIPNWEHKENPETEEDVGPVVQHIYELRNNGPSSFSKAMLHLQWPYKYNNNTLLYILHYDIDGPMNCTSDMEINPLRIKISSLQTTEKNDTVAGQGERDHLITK
# Sequence (P06756 891-1048 partner limits assumed): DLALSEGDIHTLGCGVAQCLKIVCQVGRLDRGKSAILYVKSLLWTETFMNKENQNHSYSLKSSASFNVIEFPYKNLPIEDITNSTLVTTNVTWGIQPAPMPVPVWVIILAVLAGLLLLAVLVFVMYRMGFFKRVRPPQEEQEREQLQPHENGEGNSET
# Sequence (P05106 27-788): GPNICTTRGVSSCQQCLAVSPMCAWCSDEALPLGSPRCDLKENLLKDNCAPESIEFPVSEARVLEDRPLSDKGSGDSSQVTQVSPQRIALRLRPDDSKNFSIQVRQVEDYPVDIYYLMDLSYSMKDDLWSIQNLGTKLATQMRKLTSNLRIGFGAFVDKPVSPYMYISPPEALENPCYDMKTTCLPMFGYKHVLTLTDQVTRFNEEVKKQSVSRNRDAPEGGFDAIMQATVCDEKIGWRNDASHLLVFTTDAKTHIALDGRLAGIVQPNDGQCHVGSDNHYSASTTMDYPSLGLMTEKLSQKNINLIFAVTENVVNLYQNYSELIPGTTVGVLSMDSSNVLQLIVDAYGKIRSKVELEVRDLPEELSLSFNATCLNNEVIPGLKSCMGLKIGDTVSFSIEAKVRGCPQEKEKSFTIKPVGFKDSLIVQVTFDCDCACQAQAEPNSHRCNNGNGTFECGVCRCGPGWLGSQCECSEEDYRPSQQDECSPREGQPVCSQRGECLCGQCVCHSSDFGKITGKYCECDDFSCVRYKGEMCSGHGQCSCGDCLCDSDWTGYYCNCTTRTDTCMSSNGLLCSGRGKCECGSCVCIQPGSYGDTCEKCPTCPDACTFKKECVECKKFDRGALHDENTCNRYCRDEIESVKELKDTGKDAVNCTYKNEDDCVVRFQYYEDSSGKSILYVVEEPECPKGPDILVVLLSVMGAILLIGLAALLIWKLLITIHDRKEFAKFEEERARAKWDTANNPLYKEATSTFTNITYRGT
# Assay method text: Kistrin binding assay (αvβ3 ELISA test, K/VnR)
# Recorded conditions: inhibition of binding of kistrin to human vitronectin receptor αvβ3, ELISA
// NB: equality with 6 nM counts as not fulfilled; only IC50 strictly below is fulfilled

Examples with answers:
| Query smiles | Class |
| --- | --- |
| O=C(O)[C@H](Cn1cnc2c(N3CCC(c4ccc5c(n4)NCCC5)CC3)ncnc21)NS(=O)(=O)c1cccc2ccccc12 | not fulfilled |
| O=C(N[C@@H](Cn1cnc2c(N3CCC(c4ccc5c(n4)NCCC5)CC3)ncnc21)C(=O)O)OCc1ccccc1 | not fulfilled |
| O=C(O)[C@H](Cn1cnc2c(N3CCC(c4ccc5c(n4)NCCC5)CC3)ncnc21)NS(=O)(=O)c1ccc(C(F)(F)F)cc1 | fulfilled |
| O=C(O)[C@H](Cn1cnc2c(N3CCC(c4ccc5c(n4)NCCC5)CC3)ncnc21)NS(=O)(=O)c1ccccc1 | fulfilled |
| CCCCS(=O)(=O)N[C@@H](Cn1cnc2c(N3CCC(c4ccc5c(n4)NCCC5)CC3)ncnc21)C(=O)O | not fulfilled |

Pending molecule:
Problem: Check if IC50 falls below 6 nM for O=C(O)[C@H](Cn1cnc2c(N3CCC(c4ccc5c(n4)NCCC5)CC3)ncnc21)NS(=O)(=O)c1ccc(Cl)cc1 .
Solution: fulfilled

----------
# System under test: 293 cells cotransfected with αv and β3 subunits of the vitronectin receptor αvβ3 (Homo sapiens, UniProt P05106+P06756)
# Sequence (P05106 whole entry): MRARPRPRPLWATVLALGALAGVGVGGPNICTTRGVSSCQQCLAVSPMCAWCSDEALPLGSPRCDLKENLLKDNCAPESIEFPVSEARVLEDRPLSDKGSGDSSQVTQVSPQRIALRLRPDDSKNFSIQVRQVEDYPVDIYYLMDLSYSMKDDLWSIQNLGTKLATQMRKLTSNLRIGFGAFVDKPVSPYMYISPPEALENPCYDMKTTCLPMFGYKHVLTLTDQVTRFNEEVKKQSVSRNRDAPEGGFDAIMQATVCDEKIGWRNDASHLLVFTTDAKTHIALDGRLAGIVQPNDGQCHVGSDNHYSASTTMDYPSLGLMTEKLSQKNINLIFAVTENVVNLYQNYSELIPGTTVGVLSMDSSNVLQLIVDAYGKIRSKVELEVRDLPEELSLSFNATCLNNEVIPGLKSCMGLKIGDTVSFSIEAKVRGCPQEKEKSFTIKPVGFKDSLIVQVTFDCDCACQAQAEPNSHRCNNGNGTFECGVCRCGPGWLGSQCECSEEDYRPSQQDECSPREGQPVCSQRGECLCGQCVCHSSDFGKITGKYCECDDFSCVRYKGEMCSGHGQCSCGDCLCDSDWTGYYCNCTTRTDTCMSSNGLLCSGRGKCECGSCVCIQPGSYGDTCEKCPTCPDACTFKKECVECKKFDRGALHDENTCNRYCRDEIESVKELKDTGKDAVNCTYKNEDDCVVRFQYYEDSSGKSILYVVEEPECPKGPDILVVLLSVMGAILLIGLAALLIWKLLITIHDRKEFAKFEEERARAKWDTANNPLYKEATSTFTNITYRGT
# Sequence (P06756 whole entry): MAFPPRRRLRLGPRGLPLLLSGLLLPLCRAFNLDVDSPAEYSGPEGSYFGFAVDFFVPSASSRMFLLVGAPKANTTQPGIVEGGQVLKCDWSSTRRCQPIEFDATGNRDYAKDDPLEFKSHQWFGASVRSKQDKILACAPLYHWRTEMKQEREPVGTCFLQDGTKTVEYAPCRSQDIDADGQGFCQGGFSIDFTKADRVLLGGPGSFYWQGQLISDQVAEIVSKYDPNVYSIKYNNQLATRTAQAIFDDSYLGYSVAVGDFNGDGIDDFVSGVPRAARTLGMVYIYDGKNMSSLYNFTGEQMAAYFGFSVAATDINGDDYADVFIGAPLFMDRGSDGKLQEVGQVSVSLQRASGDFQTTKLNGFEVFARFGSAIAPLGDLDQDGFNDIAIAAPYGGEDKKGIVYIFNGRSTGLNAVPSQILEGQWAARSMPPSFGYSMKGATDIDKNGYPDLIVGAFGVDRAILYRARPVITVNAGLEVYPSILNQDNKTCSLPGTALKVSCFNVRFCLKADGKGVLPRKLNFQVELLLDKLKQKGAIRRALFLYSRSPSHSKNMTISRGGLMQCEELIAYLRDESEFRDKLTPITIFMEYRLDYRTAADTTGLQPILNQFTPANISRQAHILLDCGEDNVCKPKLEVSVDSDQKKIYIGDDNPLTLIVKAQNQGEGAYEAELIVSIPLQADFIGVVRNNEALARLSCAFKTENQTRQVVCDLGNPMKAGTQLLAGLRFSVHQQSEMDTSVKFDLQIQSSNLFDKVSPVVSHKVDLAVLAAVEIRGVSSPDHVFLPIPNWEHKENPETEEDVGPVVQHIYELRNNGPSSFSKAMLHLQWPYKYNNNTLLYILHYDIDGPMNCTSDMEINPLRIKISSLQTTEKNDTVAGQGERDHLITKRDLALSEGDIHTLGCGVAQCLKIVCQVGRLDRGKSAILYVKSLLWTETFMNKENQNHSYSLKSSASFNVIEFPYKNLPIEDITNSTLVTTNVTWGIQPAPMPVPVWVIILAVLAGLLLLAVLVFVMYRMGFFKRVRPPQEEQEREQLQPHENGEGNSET
# Assay method text: Vitronectin/293 cell test (inhibition of binding of 293 cells to human vitronectin)
# Recorded conditions: inhibition of binding of αvβ3-expressing 293 cells to human vitronectin; read-out: Vn/293 cell test IC50
Consider the cut-off 20 nM. If the recorded IC50 is strictly smaller, the label is Criterion met; if not, the label is Criterion not met.

| Query smiles | Class |
| --- | --- |
| O=C(O)[C@H](Cn1cnc2c(N3CCC(c4ccc5c(n4)NCCC5)CC3)ncnc21)NS(=O)(=O)c1cccc2ccccc12 | Criterion not met |
| O=C(O)[C@H](Cn1cnc2c(N3CCC(c4ccc5c(n4)NCCC5)CC3)ncnc21)NS(=O)(=O)c1ccc(C(F)(F)F)cc1 | Criterion not met |
| CCCCS(=O)(=O)N[C@@H](Cn1cnc2c(N3CCC(c4ccc5c(n4)NCCC5)CC3)ncnc21)C(=O)O | Criterion not met |
| O=C(N[C@@H](Cn1cnc2c(N3CCC(c4ccc5c(n4)NCCC5)CC3)ncnc21)C(=O)O)OCc1ccccc1 | Criterion not met |
| O=C(O)[C@H](Cn1cnc2c(N3CCC(c4ccc5c(n4)NCCC5)CC3)ncnc21)NS(=O)(=O)c1ccccc1 | Criterion not met |

Problem: API: query returns whether the compound falls strictly under 20 nM in IC50. Query: O=C(O)[C@H](Cn1cnc2c(N3CCC(c4ccc5c(n4)NCCC5)CC3)ncnc21)NS(=O)(=O)c1ccc(Cl)cc1
Solution: Criterion met
